Entry source: patent US20260015358A1

- assay.system: WRN [UniPro: Q14191 (WRN_HUMAN), N500-C946] (Homo sapiens (Human))
- assay.summary: WRN ATPase assay (ADP-Glo)
- Type: biochemical
- conditions: WRN enzymatic activity assay
pIC50: −log10 of the molar value.
Listing of entries alongside the reported pIC50.

Below, 5 compounds whose answers are already recorded.
{"compound": "CCc1c(N2CCN(C(=O)CNC(=O)c3ccncc3O)CC2)c(=O)n2nc(C3=CCOCC3)nc2n1CC(=O)Nc1ccc(C(F)(F)F)cc1Cl [Example 381]", "quantity.measured": "pIC50", "measurement": "> 7.00"}
{"compound": "CCc1c(N2CCN(C(=O)C(=O)Nc3nncs3)CC2)c(=O)n2nc(C3=CCOCC3)nc2n1CC(=O)Nc1ccc(C(F)(F)F)cc1F [Example 342]", "quantity.measured": "pIC50", "measurement": "> 7.00"}
{"compound": "CCOC(=O)c1cnc2oc(C(=O)N3CCN(c4c(CC)n(CC(=O)Nc5ccc(C(F)(F)F)cc5Cl)c5nc(C6=CCOCC6)nn5c4=O)CC3)cc2c1O [Example 53]", "quantity.measured": "pIC50", "measurement": "> 7.00"}
{"compound": "CCc1c(N2CCN(C(=O)C(=O)N3CCOCC3)CC2)c(=O)n2nc(C3=CCOCC3)nc2n1CC(=O)Nc1ccc(C(F)(F)F)cc1Cl [Example 356]", "quantity.measured": "pIC50", "measurement": "< 6.00"}
{"compound": "CCc1c(N2CCN(C(=O)CNC(=O)C(C)(C)C)CC2)c(=O)n2nc(C3=CCOCC3)nc2n1CC(=O)Nc1ccc(C(F)(F)F)cc1Cl [Example 169]", "quantity.measured": "pIC50", "measurement": "6.00 to 7.00"}

Would you kindly look at the next entry?
pIC50 reading for CCc1c(N2CCN(C(=O)C(=O)Nc3cc(C)no3)CC2)c(=O)n2nc(C3=CCOCC3)nc2n1CC(=O)Nc1ccc(C(F)(F)F)cc1F [Example 324] : > 7.00

---

- assay.system: WRN [UniPro: Q14191 (WRN_HUMAN), N500-C946] (Homo sapiens (Human), UniProt Q14191)
- Sequence (Q14191 500-946): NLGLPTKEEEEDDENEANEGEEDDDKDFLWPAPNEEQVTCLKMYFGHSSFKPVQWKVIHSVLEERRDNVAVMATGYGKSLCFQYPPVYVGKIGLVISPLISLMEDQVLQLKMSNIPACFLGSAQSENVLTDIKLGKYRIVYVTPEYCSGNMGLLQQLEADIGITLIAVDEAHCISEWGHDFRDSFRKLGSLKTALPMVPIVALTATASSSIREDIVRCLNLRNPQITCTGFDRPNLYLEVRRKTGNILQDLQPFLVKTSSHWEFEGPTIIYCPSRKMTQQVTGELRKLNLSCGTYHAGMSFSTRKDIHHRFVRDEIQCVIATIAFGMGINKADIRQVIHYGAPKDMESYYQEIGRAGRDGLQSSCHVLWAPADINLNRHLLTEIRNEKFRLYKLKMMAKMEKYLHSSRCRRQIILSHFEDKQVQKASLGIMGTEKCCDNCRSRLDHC
- assay.summary: WRN ATPase assay (ADP-Glo)
- Type: biochemical
- conditions: WRN enzymatic activity assay
- Procedure: WRN ATPase assay was initiated to evaluate potential inhibitory effect of compounds for ATP hydrolysis activity of WRN protein. WRN [UniPro: Q14191 (WRN_HUMAN), N500-C946] was expressed and purified in insect system and stored at −80° C. in aliquots. […] ADP quantity produced from ATP hydrolysis by WRN catalytic reaction was measured using a commercially available ADP-Glo Assay (ADP-Glo™ Kinase Assay from Promega, 10000 assays, #V9102). […]
quantity.measured: IC50

Below, 3 molecules whose answers are already recorded.
{"molecule": "CCc1c(N2CCN(S(=O)(=O)NC(=O)c3ccccc3)CC2)c(=O)n2nc(C3=CCOCC3)nc2n1CC(=O)Nc1ccc(C(F)(F)F)cc1Cl [Example 194]", "IC50": "< 100 nM"}
{"molecule": "CCc1c(N2CCN(S(N)(=O)=O)CC2)c(=O)n2nc(C3=CCOCC3)nc2n1CC(=O)Nc1ccc(C(F)(F)F)cc1Cl [Example 28]", "IC50": "100 to 1000 nM"}
{"molecule": "CCc1c(N2CCN(C(=O)CNC(=O)Nc3cc(F)ccc3F)CC2)c(=O)n2nc(C3=CCOCC3)nc2n1CC(=O)Nc1ccc(C(F)(F)F)cc1Cl [Example 186]", "IC50": "< 100 nM"}

IC50 reading for CCc1c(N2CCN(C(=O)CNC(=O)c3ccccc3)CC2)c(=O)n2nc(N3Cc4ccncc4C3)nc2n1CC(=O)Nc1ccc(C(F)(F)F)cc1Cl [Example 232] : < 100 nM

IC50 reading for CCc1c(N2CCN(C(=O)CN(C)C(C)=O)CC2)c(=O)n2nc(C3=CCOCC3)nc2n1CC(=O)Nc1ccc(C(F)(F)F)cc1Cl [Example 323] : 100 to 1000 nM

IC50 reading for CCc1c(N2CCN(C(=O)CNC(=O)c3ccc(OC)cc3)CC2)c(=O)n2nc(C3=CCOCC3)nc2n1CC(=O)Nc1ccc(C(F)(F)F)cc1Cl [Example 119] : < 100 nM

IC50 reading for CCNC(=NCCCN(C)C)N1CCN(c2c(CC)n(CC(=O)Nc3ccc(C(F)(F)F)cc3C)c3nc(C4=CCOCC4)nn3c2=O)CC1 [Example 5] : > 1000 nM

IC50 reading for CCc1c(N2CCN(C(=O)c3c(O)nn4ccccc34)CC2)c(=O)n2nc(C3=CCOCC3)nc2n1CC(=O)Nc1ccc(C(F)(F)F)cc1Cl [Example 304] : < 100 nM

IC50 reading for CCc1c(N2CCN(C(=O)c3ncc4nc(Cl)sc4c3O)CC2)c(=O)n2nc(C3=CCOCC3)nc2n1CC(=O)Nc1ccc(C(F)(F)F)cc1Cl [Example 196] : < 100 nM

---

- assay.system: WRN [UniPro: Q14191 (WRN_HUMAN), N500-C946] (Homo sapiens (Human))
- assay.summary: WRN ATPase assay (ADP-Glo)
- Assay type: biochemical
- conditions: WRN enzymatic activity assay
pIC50: −log10 of the molar value.
quantity.measured: pIC50

Below, 5 compounds whose answers are already recorded.
{"compound": "CCc1c(N2CCN(C(=O)CNC(=O)c3ccccc3)CC2)c(=O)n2nc(N3CCOCC3)nc2n1CC(=O)Nc1ccc(C(F)(F)F)cc1Cl", "pIC50": "> 7.00"}
{"compound": "CCc1c(N2CCN(C(=O)CNC(=O)c3ccn[nH]3)CC2)c(=O)n2nc(C3=CCOCC3)nc2n1CC(=O)Nc1ccc(C(F)(F)F)cc1Cl", "pIC50": "> 7.00"}
{"compound": "CCc1c(N2CCN(C(=O)CNC(=O)c3cscn3)CC2)c(=O)n2nc(C3=CCOCC3)nc2n1CC(=O)Nc1ccc(C(F)(F)F)cc1Cl", "pIC50": "> 7.00"}
{"compound": "CCc1c(N2CCN(C(=O)CNc3ncccn3)CC2)c(=O)n2nc(C3=CCOCC3)nc2n1CC(=O)Nc1ccc(C(F)(F)F)cc1Cl", "pIC50": "6.00 to 7.00"}
{"compound": "CCc1c(N2CCN(C(=O)c3ncc4c(ccn4C)c3O)CC2)c(=O)n2nc(C3=CCOCC3)nc2n1CC(=O)Nc1ccc(C(F)(F)F)cc1Cl", "pIC50": "> 7.00"}

pIC50 reading for CCc1c(N2CCN(C(=O)CNC(=O)NCC3CC3)CC2)c(=O)n2nc(C3=CCOCC3)nc2n1CC(=O)Nc1ccc(C(F)(F)F)cc1Cl : > 7.00

pIC50 reading for CCc1c(N2CCN(C(=O)c3nnc(C)[nH]c3=O)CC2)c(=O)n2nc(C3=CCOCC3)nc2n1CC(=O)Nc1ccc(C(F)(F)F)cc1Cl : > 7.00

pIC50 reading for CCc1c(N2CCN(C(=O)CNC(=O)c3ccccc3F)CC2)c(=O)n2nc(C3=CCOCC3)nc2n1CC(=O)Nc1ccc(C)s1 : 6.00 to 7.00

pIC50 reading for CCc1c(N2CCN(C(=O)c3n[nH]c(=O)n(C)c3=O)CC2)c(=O)n2nc(C3=CCOCC3)nc2n1CC(=O)Nc1ccc(Cl)cc1C(F)(F)F : > 7.00

---

Listing of entries alongside the reported pIC50.
- assay.system: WRN [UniPro: Q14191 (WRN_HUMAN), N500-C946] (Homo sapiens (Human))
- assay.summary: WRN unwinding assay (FORKF DNA, fluorescence)
- Format: biochemical
- conditions: Table 14
pIC50: −log10 of the molar value.

{"molecule": "CCc1c(N2CCN(C(=O)N(C)C)CC2)c(=O)n2nc(C3=CCOCC3)nc2n1CC(=O)Nc1ccc(C(F)(F)F)cc1Cl", "pIC50": "< 6.00"}
{"molecule": "CCc1c(N2CCN(C(=O)C(=O)Nc3nc(C)co3)CC2)c(=O)n2nc(C3=CCOCC3)nc2n1CC(=O)Nc1ccc(C(F)(F)F)cc1F", "pIC50": "> 7.00"}

Item CCc1c(N2CCN(C(=O)CNC(=O)c3ncnc(C)c3O)CC2)c(=O)n2nc(N3CCOCC3)nc2n1CC(=O)Nc1ccc(C(F)(F)F)cc1Cl was tested on WRN [UniPro: Q14191 (WRN_HUMAN), N500-C946] (Homo sapiens (Human)); the reported pIC50 is > 7.00

Item CCc1c(N2CCN(C(=O)CNC(=O)c3cccc4nonc34)CC2)c(=O)n2nc(C3=CCOCC3)nc2n1CC(=O)Nc1ccc(C(F)(F)F)cc1Cl was tested on WRN [UniPro: Q14191 (WRN_HUMAN), N500-C946] (Homo sapiens (Human)); the reported pIC50 is > 7.00
